System: Plasmodium berghei
Experiment: Screen against P. berghei liver stage (PbLuc), transformed with Luciferase, at 10uM
Type: functional, HepG2
Conditions: tested at 10 uM
Among all 69,000 compounds or so, about 8,600 (12%) showed an effect of 50% or more. The sample holds strong results, similar compounds and a random draw of the others, so the mix is not that of the screen.
measured.quantity: INHIBITION (%)
The reply should contain only the number, in %.

Entry under review: "CC(C)CCNC(=O)CNC(=O)N1CCc2c([nH]c3ccc(Cl)cc23)C1" . Reported INHIBITION?
-2.13

Entry under review: "Cc1ccc2cc(C(=O)N3CCCN(C)CC3)ccc2n1" . Reported INHIBITION?
48

Entry under review: CCc1ccc(C2CC(=O)Nc3n[nH]cc32)o1 (centres undefined) . Reported INHIBITION?
26.9

Entry under review: "CCn1ccnc1CN1CCCN(C(=O)c2cccn2C)CC1" . Reported INHIBITION?
56.6

Entry under review: "N#CC1(NC(=O)c2c(F)ccc(OC(F)F)c2F)CCOCC1" . Reported INHIBITION?
-11.7

Entry under review: "CC(C)[C@H](N)c1nnc(SCC(=O)Nc2ccc(Br)cc2)o1" . Reported INHIBITION?
25.3

Entry under review: Cc1cccc(-c2nc(C)nn2CC(=O)NC(C)C2CC2)c1 (centres undefined) . Reported INHIBITION?
33.3

Entry under review: "Cn1nc(CNC(=O)c2ccc3c(c2)OCO3)c2c1CCOC2" . Reported INHIBITION?
40.8

Entry under review: "COc1ccnc(N2CCN(C(=O)c3ccc(Cl)o3)CC2)n1" . Reported INHIBITION?
-9.76

Entry under review: "Cc1ccc(S(=O)(=O)N2CC[C@H]3CO[C@H](CN(C)C)[C@H]3C2)cc1" . Reported INHIBITION?
32.2

Entry under review: "CC(C)c1nncn1CCNC(=O)c1c(O)cc(F)cc1F" . Reported INHIBITION?
8.86

Entry under review: "Cn1ccnc1CN1CCCN(C(=O)c2ccc3[nH]cnc3c2)CC1" . Reported INHIBITION?
21

Entry under review: "CCn1ccnc1CN1CCCN(C(=O)c2cc(C)nn2CC)CC1" . Reported INHIBITION?
32.3665

Entry under review: O=C(c1csc(-c2ncccn2)n1)N1CCCC1Cn1cccn1 (centres undefined) . Reported INHIBITION?
41.5

Entry under review: "Cc1cnc(C)c(Oc2ccc(CN3CCCC3)cc2Cl)n1" . Reported INHIBITION?
89.4

Entry under review: "O[C@@H]1CN(c2noc(C3CC3)n2)CC[C@H]1c1ccc2ccccc2c1" . Reported INHIBITION?
51.2

Entry under review: "CC(=O)NCc1cc2n(n1)CCN(Cc1cc(-c3ccccc3)no1)C2" . Reported INHIBITION?
32.2

Entry under review: "COCCOCC(=O)N1CCC(O)(c2ccc3nc(C)ccc3c2)CC1" . Reported INHIBITION?
-18.5

Entry under review: "Cn1ccc(C(=O)NCc2ccc(N3CCCCC3)nc2)cc1=O" . Reported INHIBITION?
46.2

Entry under review: "CNc1cc2c(nn1)CCN(C(=O)c1ccccc1-n1cccn1)C2" . Reported INHIBITION?
36.8

Entry under review: "Cn1ccnc1CN1CCCN(C(=O)CC(C2CC2)C2CC2)CC1" . Reported INHIBITION?
50.3

Entry under review: "Cn1ccnc1CN1CCCN(C(=O)c2ccc3ccccc3c2)CC1" . Reported INHIBITION?
27.8

Entry under review: CN1CCCC1c1cncc(C(=O)NCc2ccccc2)n1 (centres undefined) . Reported INHIBITION?
40.6

Entry under review: CN(Cc1ccc(C2CC(=O)Nc3n[nH]cc32)o1)S(C)(=O)=O (centres undefined) . Reported INHIBITION?
-38.1

Entry under review: CCC(C)Oc1ccccc1Cn1cc2[nH]cccc-2c1=O (centres undefined) . Reported INHIBITION?
41.5

Entry under review: CC(Oc1ccccc1)C(=O)N1CCCN(Cc2nccn2C)CC1 (centres undefined) . Reported INHIBITION?
54.4

Entry under review: COc1cc(C)c(C2CC(=O)Nc3cc(NS(C)(=O)=O)ccc32)cc1C (centres undefined) . Reported INHIBITION?
-5.22

Entry under review: "Cc1nn(C)c2ncc(CN3CCCCCC3)cc12" . Reported INHIBITION?
44.9

Entry under review: "O=C(N[C@H]1CCCC[C@@H]1O)c1ccc2nc(-c3ccccc3)[nH]c2c1" . Reported INHIBITION?
-85.3

---

So I've got a bunch of molecules here, and I need their INHIBITION values.
System: Plasmodium berghei
Assay: Screen against P. berghei liver stage (PbLuc), transformed with Luciferase, at 10uM
Type: functional, HepG2
Conditions: tested at 10 uM
Among all 69,000 compounds or so, about 8,600 (12%) showed an effect of 50% or more. What follows is part of a selection rich in strong results, with near analogues and random picks from the rest.
The reply should contain only the number, in %.

Entry under review: COCC1COCCC12CCN(S(=O)(=O)c1cccnc1)CC2 (stereo not given) . Reported INHIBITION?
36.5

Entry under review: "O=C(CN1CCCc2cc(F)cc(F)c21)Nc1ccc(Br)cn1" . Reported INHIBITION?
-5.57

Entry under review: "CN1CCC(N(Cc2ccco2)S(=O)(=O)c2cc(Br)ccc2Br)CC1" . Reported INHIBITION?
69.8

Entry under review: "Cc1ncc(C(=O)NCCNC(=O)Cc2cccc(F)c2)s1" . Reported INHIBITION?
-13.5

Entry under review: "CN1CCC(N(Cc2ccco2)S(=O)(=O)c2ccc(Cl)cc2)CC1" . Reported INHIBITION?
27.9

Entry under review: "NC(=O)c1nc2c(s1)CCN(C(=O)Nc1cccc(Cl)c1)CC2" . Reported INHIBITION?
80.2

Entry under review: "COc1cccc2c1N(CC(=O)Nc1ccc(Br)cn1)CCC2" . Reported INHIBITION?
66.7

Entry under review: "COc1ncccc1NC(=O)N(CC(C)C)C1CC1" . Reported INHIBITION?
-2.19

Entry under review: "Cc1cc(NC(=O)CN2CCn3c(C)nnc3C2)no1" . Reported INHIBITION?
45.1

Entry under review: CCc1ccc(CNc2cc(N3CCCC3CO)ncn2)s1 (stereo not given) . Reported INHIBITION?
49.1

---

Test system: Plasmodium berghei
Assay: Screen against P. berghei liver stage (PbLuc), transformed with Luciferase, at 10uM
Assay type: functional, HepG2
Details: tested at 10 uM
The campaign covered roughly 69,000 compounds. About 8,600 (12%) showed an effect of 50% or more. The full list was thinned out, with strong results kept by preference.
measured.quantity: INHIBITION
Answer format reminder: number followed by unit.

Entry under review: CCOC(C)c1nccn1Cc1cc(C)on1 (stereo not drawn) . Reported INHIBITION?
26.4%

Entry under review: CN(C)C1(C(=O)NC2CCC(Oc3ccccc3C#N)CC2)CCC1 (stereo not drawn) . Reported INHIBITION?
67.4%

Entry under review: COc1ccc2oc(C(C)NC(=O)NCC(C)(C)C(N)=O)c(C)c2c1 (stereo not drawn) . Reported INHIBITION?
42.3%

Entry under review: "Cc1ccc(CN2CC[C@@H](O)[C@@H]2Cc2ccccc2)o1" . Reported INHIBITION?
42.3%

Entry under review: CC(C)c1nnc2n1CC(CNC/C=C/c1ccccc1)CC2 (stereo not drawn) . Reported INHIBITION?
51.3%

Entry under review: CCc1nc(C2CCCN2Cc2nnc(Cc3ccccc3)o2)no1 (stereo not drawn) . Reported INHIBITION?
5.97%

Entry under review: CC(C)c1nnc2n1CC(CNCc1nc3ccccc3s1)CC2 (stereo not drawn) . Reported INHIBITION?
43.3%

Entry under review: "O=S(=O)(c1ccccc1Cl)N1CCc2nc(C3CCNCC3)ncc2C1" . Reported INHIBITION?
75.6%

Entry under review: CCc1nc(C2CCCN2Cc2nc(Cc3ccccc3)no2)no1 (stereo not drawn) . Reported INHIBITION?
31.3%

Entry under review: CCNC(=O)NC1CCC(Oc2ccccc2C#N)CC1 (stereo not drawn) . Reported INHIBITION?
40.2%

Entry under review: Cc1nnc(CN2CCCC2c2ccc(Cl)c(Cl)c2)o1 (stereo not drawn) . Reported INHIBITION?
21.5%

Entry under review: CN(C)CCN(C)C(=O)NC1CCC(Oc2ccccc2C#N)CC1 (stereo not drawn) . Reported INHIBITION?
34%

Entry under review: CC(NC(=O)CCn1cccn1)c1cn(-c2ccccc2)nn1 (stereo not drawn) . Reported INHIBITION?
-15.5%

Entry under review: CCN(c1ccc(C(=O)N2CCCC(C)C2)cc1)S(=O)(=O)CC (stereo not drawn) . Reported INHIBITION?
10.1%

Entry under review: Cc1nn(C)c(Cl)c1C1CCCN1Cc1nc(C2CC2)no1 (stereo not drawn) . Reported INHIBITION?
37.4%

Entry under review: "CCN(CC)S(=O)(=O)N1CCc2nc(C3CCNCC3)ncc2C1" . Reported INHIBITION?
32.3%

Entry under review: "O=S(=O)(c1ccc(Cl)cc1)N1CCc2nc(C3CCNCC3)ncc2C1" . Reported INHIBITION?
9.93%

Entry under review: "Cc1noc([C@@H]2C[C@@H]3CCN(c4nnc(C)s4)C[C@H]3O2)n1" . Reported INHIBITION?
-21.1%

Entry under review: "O=C1[C@@H]2CC[C@@H](CN(Cc3ccccc3OC(F)F)C2)N1CC1CC1" . Reported INHIBITION?
18.5%

Entry under review: "Cc1noc([C@H]2CC[C@@H]3[C@@H](CCN3c3ncccn3)O2)n1" . Reported INHIBITION?
51.4%

Entry under review: "COCc1noc(-c2ccc(N3CCC[C@H]3CO)nc2)n1" . Reported INHIBITION?
75.7%

Entry under review: COCCC(=O)N1CCCC1c1nccnc1Nc1ncccn1 (stereo not drawn) . Reported INHIBITION?
33.7%

Entry under review: CC(O)CNCc1c(C(C)C)nn(C)c1N1CCOCC1 (stereo not drawn) . Reported INHIBITION?
3.8%
